Biological target: Human immunodeficiency virus type 1 reverse transcriptase (Human immunodeficiency virus 1)
Test: Inhibition of HIV1 reverse transcriptase p66/p51
Conditions: read-out: IC50
Flag rule - IC50 less than 0.03 µM flags 1; the remaining entries get -1.

- compound: "Cc1cc(C)cc(S(=O)(=O)c2c(C(=O)NCCC(N)=O)[nH]c3ccc(Cl)c(F)c23)c1"
  discrete_label: -1
- compound: "Cc1cc(C)cc(S(=O)(=O)c2c(C(=O)NCCS(N)(=O)=O)[nH]c3ccc(Br)cc23)c1"
  discrete_label: 1
- compound: "Cc1cc(C)cc(S(=O)(=O)c2c(C(=O)NC(C)C(N)=O)[nH]c3ccc(Br)cc23)c1 (stereo not drawn)"
  discrete_label: 1
- compound: "Cc1cc(C)cc(S(=O)(=O)c2c(C(=O)NCC(N)=O)[nH]c3ccc([N+](=O)[O-])cc23)c1"
  discrete_label: -1
- compound: "Cc1cc(C)cc(S(=O)(=O)c2c(C(=O)N[C@H](C)C(N)=O)[nH]c3ccc(Br)cc23)c1"
  discrete_label: 1
- compound: "Cc1cc(C)cc(S(=O)(=O)c2c(C(=O)NC(C)C(N)=O)[nH]c3ccc([N+](=O)[O-])cc23)c1 (stereo not drawn)"
  discrete_label: 1
- compound: "Cc1cc(C)cc(S(=O)(=O)c2c(C(=O)NCC(N)=O)[nH]c3ccc(Cl)cc23)c1"
  discrete_label: 1
- compound: "Cc1cc(C)cc(S(=O)(=O)c2c(C(=O)NCCC(N)=O)[nH]c3ccc([N+](=O)[O-])cc23)c1"
  discrete_label: 1
